# Tested on: CP305
# assayName: qHTS profiling for inhibitors of Plasmodium falciparum proliferation (AID 504749); note: nearly all actives have a fitted effect of over 60% in size
# conditionSet: P. falciparum in erythrocytes, SYBR Green DNA, 72 h; series mostly up to 28.7 µM
# Protocol: NIH National Institute of Allergy and Infectious Diseases [NIAID] NIH Chemical Genomics Center [NCGC] […] Because mature erythrocytes lack DNA, only Plasmodium-derived DNA is detected. NCGC Assay Protocol Summary: The SYBR Green viability assay was adapted from a method described previously (Plouffe et al., 2008). […] The following morning, fluorescence intensity at 485(14) nm excitation and 535(25) nm emission wavelengths was measured on an EnVision (Perkin Elmer) plate reader. […]
Results filed as inconclusive are left out. Calls of active or inactive are those of the source. Calls come from the whole dose curve; as a rule, active = well fitted inhibition curve with a large enough effect; inconclusive = small, poorly fitted or top-dose-only effect; inactive = flat fitted curve, though single readings scatter.
Mark one answer only. Choices: YES = active, NO = inactive

Consider the following illustrative entries.
* COC(C(=O)C(O)C(C)O)C1Cc2cc3cc(OC4CC(OC5CC(O)C(OC)C(C)O5)C(OC(C)=O)C(C)O4)c(C)c(O)c3c(O)c2C(=O)C1OC1CC(OC2CC(OC3CC(C)(O)C(OC(C)=O)C(C)O3)C(O)C(C)O2)C(O)C(C)O1 (centres undefined) | YES
* C[C@@H]1CC[C@H]2[C@@H](C)C(=O)O[C@@H]3OC4(C)CC[C@@H]1C32OO4 (some centres undefined) | YES
* C=CC[C@]1(O)CCC2C3CCC4=CCCCC4C3CCC21C (some centres undefined) | NO

Please look at the following compound next.
Problem: Given CC(CO)NC(=O)C1C=C2c3cccc4[nH]cc(c34)CC2N(C)C1 (centres undefined) , state the outcome it received in this test.
Result: NO

From: PubChem BioAssay (NCATS)
